experiment: Isothermal equilibrium denaturation in guanidine HCl monitored by CD; assay type: physicochemical; conditions: GuHCl, 298K, CD signal at 227 nm
Below is a list of entries, each paired with its recorded m-value value.
Report only the number, with the unit kJ/mol M understood.

SYM5/Δ104-106: SYM5 FGF-1 mutant plus Ala103→Gly/ΔGlu104/ΔLys105/ΔAsn106 (protein, UniProt P05230 16-155, looked up, variant L44F L73V V109L L111I C117V A103G del104-106) Fibroblast growth factor 1: FNLPPGNYKKPKLLYCSNGGHFLRILPDGTVDGTRDRSDQHIQFQLSAESVGEVYIKSTETGQYLAMDTDGLVYGSQTPNEECLFLERLEENHYNTYISKKHGWFLGIKKNGSVKRGPRTHYGQKAILFLPLPVSSD
17.2
SYM5/Δ120-122: SYM5 FGF-1 mutant plus Arg119→Gly/ΔGly120/ΔPro121/ΔArg122, SEQ ID NO: 2 (protein, Human FGF-1 mutant SYM5D120-122) FNLPPGNYKKPKLLYCSNGGHFLRILPDGTVDGTRDRSDQHIQFQLSAESVGEVYIKSTETGQYLAMDTDGLVYGSQTPNEECLFLERLEENHYNTYISKKHAEKNWFLGIKKNGSVKGTHYGQKAILFLPLPVSSD
16.6

# input for lookup
q: Give the measured m-value for SYM5/ΔΔ: SYM5 FGF-1 mutant plus both Δ104-106 and Δ120-122 deletion mutations (protein, UniProt P05230 16-155, looked up, variant L44F L73V V109L L111I C117V A103G del104-106 R119G del120-122) Fibroblast growth factor 1: FNLPPGNYKKPKLLYCSNGGHFLRILPDGTVDGTRDRSDQHIQFQLSAESVGEVYIKSTETGQYLAMDTDGLVYGSQTPNEECLFLERLEENHYNTYISKKHGWFLGIKKNGSVKGTHYGQKAILFLPLPVSSD
a: 18.1
